This collection of values is drawn from PubChem BioAssay AID624129.

Biological target: C-C chemokine receptor type 6 (Homo sapiens) (UniProt P51684)
Test: potency against CXCR6 with APJ panel – cell-based, beta-arrestin, DiscoveRx, uHTS hits, dose response (AID 624129)
Details: CXCR6 beta-arrestin (DiscoveRx) antagonist cell assay, CCR6, run 2, dose range 1
Measurement type: IC50 (µM)
Answer in µM, number only, no unit symbol.

IC50 for `CC(=O)OCCNc1cc(SCc2ccco2)c2nonc2c1[N+](=O)[O-]` ? 14.2

IC50 for `O=C(Cn1sc2ccccc2c1=O)NC12CC3CC(CC(C3)C1)C2` ? 1.78

IC50 for `CCc1cc2c(=O)[nH]c(-c3ccccn3)nc2s1` ? 3.1

IC50 for `Cc1ccsc1/C=C/c1ccc2cccc(O)c2n1` ? 7.72

IC50 for `O=[N+]([O-])c1ccc(Sc2cccc[n+]2[O-])c2nonc12` ? 11.6

IC50 for `Cc1[nH]n(-c2ccccc2)c(=S)c1C=NCCCN=Cc1c(C)[nH]n(-c2ccccc2)c1=S` ? 1.86

IC50 for `O=C1CN(C(=O)CSc2nc3cc(Cl)ccc3c(=O)n2Cc2ccccc2)c2ccccc2N1` ? 12.7

IC50 for `N#CC(C#N)=C1C=CC=CN1/C(=C\c1ccco1)C(=O)c1ccccc1` ? 2.99

IC50 for `Cc1ccccc1Oc1cc(-n2ncc(Cl)c(Cl)c2=O)ncn1` ? 1.75

IC50 for `O=[N+]([O-])c1c(Nc2ccccc2O)cc(Cl)c2nonc12` ? 13.4

IC50 for `O=C(CSc1cccc2cccnc12)N1CCCC1` ? 6.36

IC50 for `CCc1ccccc1OCC(=O)Nc1nc(-c2cccnc2)cs1` ? 7.7

IC50 for COc1ccc(CN2C(=O)C(Cc3ccccc3)Nc3ncnc(N4CCN(c5ccccc5)CC4)c32)cc1 (stereo not given) ? 4.05

IC50 for `O=S(=O)(Nc1cccc2cccnc12)c1ccccc1` ? 11.8

IC50 for C/C(=N\NC(=O)C(C)Oc1ccc([N+](=O)[O-])cc1)c1ccccn1 (stereo not given) ? 3.6

IC50 for `O=C1C(=C(c2ccccc2)N2CCOCC2)Cc2ccccc21` ? 8.87

IC50 for Cc1ccc(C(C[N+](=O)[O-])Sc2ccc(N)cc2)cc1 (stereo not given) ? 23.3

IC50 for `On1ccccc1=S` ? 42.4

IC50 for `CCS(=O)(=O)c1ncc(Cl)c(C(=O)Nc2ccc(S(=O)(=O)N(C)c3ccccc3)cc2)n1` ? 4.74

IC50 for `O=[N+]([O-])c1c(Nc2cccc(O)c2)cc(Cl)c2nonc12` ? 14.3

IC50 for `COc1ccc(CCN2C(=O)C=CC2=O)cc1OC` ? 7.78

IC50 for `COC(=O)c1ccc2c(c1)C(C)(C)C(/C=C/c1ccccc1O)=[N+]2C` ? 12.3

IC50 for CCC1CCCCN1S(=O)(=O)c1ccc(NC(=O)c2nc(S(C)(=O)=O)ncc2Cl)cc1 (stereo not given) ? 5.82

IC50 for `CC(=O)OCCNc1cc(Sc2nc3ccccc3[nH]2)c2nonc2c1[N+](=O)[O-]` ? 5.16

IC50 for `COc1ccc(C(=O)N/N=C(\C)c2ccccn2)cc1OC` ? 2.71

IC50 for `CN(C)S(=O)(=O)c1cccc(NC(=O)CSc2cccc3cccnc23)c1` ? 30.8

IC50 for `C/C(=N\NC(=O)Cc1ccc(Cl)cc1)c1ccccn1` ? 3.69

IC50 for `CN(C)c1nc(=NCc2ccco2)ss1` ? 34.2

IC50 for `CC(C)(C)c1ccc(CN2N=Nc3ccccc3S2(=O)=O)cc1` ? 23.1

IC50 for `Cc1ccnc(N2C(=O)c3cccc4c([N+](=O)[O-])ccc(c34)C2=O)c1` ? 3

IC50 for `COc1ccc([N+](=O)[O-])c(S(=O)(=O)c2ccc(Cl)cc2)n1` ? 55.8

IC50 for `O=C1C=CC(=O)N1Cc1ccccc1` ? 7.51

IC50 for `Cc1ccc(OCCn2c(NC(=O)c3ccco3)nc3ccccc32)cc1` ? 3.68

IC50 for `O=[N+]([O-])c1c(Nc2ccc(O)cc2)cc(Cl)c2nonc12` ? 1.85

IC50 for `Fc1ccc(Sc2nc(-c3ccccc3)nnc2C(F)(F)F)cc1` ? 7.37

IC50 for `C/C(=N\NC(=O)c1cc(-c2cccs2)nc2ccccc12)c1ccccn1` ? 4.01

IC50 for `CCOc1ccc(NCC(=O)c2ccc(C)cc2)cc1` ? 18.3
